system: Klebsiella pneumoniae; experiment: Antimicrobial activity against carbapenem-resistant KPC-2 producing Klebsiella pneumoniae 365 ST 376 expressing beta-lactamase SHV-1, CTX-M-15 and OXA-4 by agar dilution method
This listing pairs compounds with measured MIC.
Number in µg/mL, nothing else.

// MIC lookup, key: `NCC[C@H](O)C(=O)N[C@@H]1C[C@H](N)[C@@H](O[C@H]2O[C@H](CN)[C@@H](O)[C@H](O)[C@H]2O)[C@H](O)[C@H]1O[C@H]1O[C@H](CO)[C@@H](O)[C@H](N)[C@H]1O`
4

---

# key: entry, value: MIC
test system: Klebsiella pneumoniae; assay: Antimicrobial activity against carbapenem-resistant KPC-2 producing Klebsiella pneumoniae 365 transformant by agar dilution method; assay type: functional
Field: numeric (µg/mL). Do not append units.

A selection of reference data follows.
C[C@@H](O)[C@H]1C(=O)N2C(C(=O)O)=C(SCCNC=N)C[C@H]12 [IMIPENEM ANHYDROUS] = 8
C[C@@H](O)[C@H]1C(=O)N2C(C(=O)O)=C(S[C@@H]3CN[C@H](C(=O)N(C)C)C3)[C@H](C)[C@H]12 = 4

// query MIC value for entry `CC(C)(O/N=C(\C(=O)N[C@@H]1C(=O)N2C(C(=O)[O-])=C(C[n+]3ccccc3)CS[C@H]12)c1csc(N)n1)C(=O)O`
16

Entry to check: `C[C@@H](O)[C@H]1C(=O)N2C(C(=O)O)=C(S[C@@H]3CN[C@H](C(=O)Nc4cccc(C(=O)O)c4)C3)[C@H](C)[C@H]12`
8

---

tested on: Klebsiella pneumoniae; experiment: Antimicrobial activity against KPC-3 producing Klebsiella pneumoniae 557 ST 258 expressing beta-lactamase TEM-1 by agar dilution method
Recorded MIC by entry
Number in µg/mL, nothing else.

Examples with their reported MIC follow.
C[C@@H](O)[C@H]1C(=O)N2C(C(=O)O)=C(S[C@@H]3CN[C@H](C(=O)N(C)C)C3)[C@H](C)[C@H]12 [MEROPENEM] = 128
C[C@@H](O)[C@H]1C(=O)N2C(C(=O)O)=C(SCCNC=N)C[C@H]12 [IMIPENEM ANHYDROUS] = 128

Which MIC is listed for NCC[C@H](O)C(=O)N[C@@H]1C[C@H](N)[C@@H](O[C@H]2O[C@H](CN)[C@@H](O)[C@H](O)[C@H]2O)[C@H](O)[C@H]1O[C@H]1O[C@H](CO)[C@@H](O)[C@H](N)[C@H]1O [AMIKACIN] ?
32

Next entry: `C[C@@H](O)[C@H]1C(=O)N2C(C(=O)O)=C(S[C@@H]3CN[C@H](C(=O)Nc4cccc(C(=O)O)c4)C3)[C@H](C)[C@H]12`
256

---

tested on: Klebsiella pneumoniae; test: Antimicrobial activity against KPC-3 producing Klebsiella pneumoniae 549 ST 327 expressing beta-lactamase TEM-1 and CTX-M-2 by agar dilution method; format: functional
Below, each entry is listed with its recorded MIC.

The cases that follow already have their MIC on record.
C[C@H]1[C@H](NC(=O)/C(=N\OC(C)(C)C(=O)O)c2csc(N)n2)C(=O)N1S(=O)(=O)O = > 64 mg/L
C[C@H]1COc2c(N3CCN(C)CC3)c(F)cc3c(=O)c(C(=O)O)cn1c23.C[C@H]1COc2c(N3CCN(C)CC3)c(F)cc3c(=O)c(C(=O)O)cn1c23.O = > 8 mg/L
CO/N=C(\C(=O)N[C@@H]1C(=O)N2C(C(=O)O)=C(CSc3nc(=O)c(O)nn3C)CS[C@H]12)c1csc(N)n1 = > 64 mg/L

Attention now shifts to the item below.
I have this compound here, `NCC[C@H](O)C(=O)N[C@@H]1C[C@H](N)[C@@H](O[C@H]2O[C@H](CN)[C@@H](O)[C@H](O)[C@H]2O)[C@H](O)[C@H]1O[C@H]1O[C@H](CO)[C@@H](O)[C@H](N)[C@H]1O` , and I need its recorded MIC.
< 2 mg/L

---

Listing: MIC of selected compounds
system: Klebsiella pneumoniae; assay: Antimicrobial activity against carbapenem-resistant KPC-2 producing Klebsiella pneumoniae 365 ST 376 expressing beta-lactamase SHV-1, CTX-M-15 and OXA-4 by agar dilution method
The reply should be a number in µg/mL, with the unit left off.

Record excerpt, results attached:
C[C@@H](O)[C@H]1C(=O)N2C(C(=O)O)=C(S[C@@H]3CN[C@H](C(=O)Nc4cccc(C(=O)O)c4)C3)[C@H](C)[C@H]12 = 64
C[C@@H](O)[C@H]1C(=O)N2C(C(=O)O)=C(S[C@@H]3CN[C@H](C(=O)N(C)C)C3)[C@H](C)[C@H]12 = 64

Now turn to the next compound.
MIC lookup needed for C[C@@H](O)[C@H]1C(=O)N2C(C(=O)O)=C(SCCNC=N)C[C@H]12 [IMIPENEM ANHYDROUS] , thanks.
32

---

test system: Klebsiella pneumoniae; experiment: Antimicrobial activity against carbapenem-resistant KPC-2 producing Klebsiella pneumoniae 365 transformant by agar dilution method; format: functional
PARAMETER_MEASURED: MIC

Past entries and their recorded results:
C[C@H]1COc2c(N3CCN(C)CC3)c(F)cc3c(=O)c(C(=O)O)cn1c23.C[C@H]1COc2c(N3CCN(C)CC3)c(F)cc3c(=O)c(C(=O)O)cn1c23.O = < 0.12 µg/mL
C[C@H]1[C@H](NC(=O)/C(=N\OC(C)(C)C(=O)O)c2csc(N)n2)C(=O)N1S(=O)(=O)O = > 64 µg/mL

Next item in the queue.
Requested read-out MIC, target or system Klebsiella pneumoniae, entry `NCC[C@H](O)C(=O)N[C@@H]1C[C@H](N)[C@@H](O[C@H]2O[C@H](CN)[C@@H](O)[C@H](O)[C@H]2O)[C@H](O)[C@H]1O[C@H]1O[C@H](CO)[C@@H](O)[C@H](N)[C@H]1O`
< 2 µg/mL

---

system: Klebsiella pneumoniae; experiment: Antimicrobial activity against KPC-3 producing Klebsiella pneumoniae 557 ST 258 expressing beta-lactamase TEM-1 by agar dilution method
Catalogue of MIC values

What measured MIC goes with `C[C@H]1COc2c(N3CCN(C)CC3)c(F)cc3c(=O)c(C(=O)O)cn1c23.C[C@H]1COc2c(N3CCN(C)CC3)c(F)cc3c(=O)c(C(=O)O)cn1c23.O` ?
> 8 µg/mL

Would you kindly repeat that for `C[C@H]1[C@H](NC(=O)/C(=N\OC(C)(C)C(=O)O)c2csc(N)n2)C(=O)N1S(=O)(=O)O` ?
> 64 µg/mL

Query `CC(C)(O/N=C(\C(=O)N[C@@H]1C(=O)N2C(C(=O)[O-])=C(C[n+]3ccccc3)CS[C@H]12)c1csc(N)n1)C(=O)O` next
> 64 µg/mL

How about this compound: `CO/N=C(\C(=O)N[C@@H]1C(=O)N2C(C(=O)O)=C(CSc3nc(=O)c(O)nn3C)CS[C@H]12)c1csc(N)n1`
> 64 µg/mL

---

test system: Klebsiella pneumoniae; test: Antimicrobial activity against carbapenem-resistant KPC-2 producing Klebsiella pneumoniae 365 ST 376 expressing beta-lactamase SHV-1, CTX-M-15 and OXA-4 by agar dilution method
Each item that follows carries a reported MIC.

C[C@H]1[C@H](NC(=O)/C(=N\OC(C)(C)C(=O)O)c2csc(N)n2)C(=O)N1S(=O)(=O)O = > 64 µg/mL
CC(C)(O/N=C(\C(=O)N[C@@H]1C(=O)N2C(C(=O)[O-])=C(C[n+]3ccccc3)CS[C@H]12)c1csc(N)n1)C(=O)O = > 64 µg/mL
C[C@H]1COc2c(N3CCN(C)CC3)c(F)cc3c(=O)c(C(=O)O)cn1c23.C[C@H]1COc2c(N3CCN(C)CC3)c(F)cc3c(=O)c(C(=O)O)cn1c23.O = > 8 µg/mL

Field: next molecule
Observed MIC on Klebsiella pneumoniae for `CO/N=C(\C(=O)N[C@@H]1C(=O)N2C(C(=O)O)=C(CSc3nc(=O)c(O)nn3C)CS[C@H]12)c1csc(N)n1` , please.
> 64 µg/mL
